# assayInfo: NCI Yeast Anticancer Drug Screen. Data for the sgs1 strain (AID 173);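 also: 0% = growth of vehicle-only control cultures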
# recordedConditions: S. cerevisiae sgs1 mutant, at 100.0 µM, active compounds read high
Compounds without any hit were thinned out: in the full panel of roughly 79,000, 15% have a hit.
Form field: growth inhibition (one value per entry).
Value expressed in %; do not type the unit.

Solved cases (5 shown):
>  <compound>
CSC(=S)Nc1cc(C)ccn1

>  <uom>
%

>  <obsValue>
93

$$$$
>  <compound>
O=c1c2ccccc2ncn1COCc1ccccc1

>  <uom>
%

>  <obsValue>
-7

$$$$
>  <compound>
O=C(OCC=C1CCCC1)c1cc([N+](=O)[O-])cc([N+](=O)[O-])c1

>  <uom>
%

>  <obsValue>
99

$$$$
>  <compound>
NNC(=O)CCc1ccc2ccc3ccccc3c2c1

>  <uom>
%

>  <obsValue>
52

$$$$
>  <compound>
CC(=O)Nc1ccc(SC(C)=O)cc1

>  <uom>
%

>  <obsValue>
88

$$$$

Ask: Which growth inhibition reading was recorded for the compound N#CN=Nc1cc(Cl)c(N=NC#N)cc1Cl ?
Result: 94

Ask: Which growth inhibition reading was recorded for the compound Cc1ccc2ccc3cccc4ccc1c2c34 ?
Result: 42
